Form field: Normal boiling temperature (one value per entry).
conditions: Liquid; Ebulliometric method (Recirculating still)
Answer in °C, number only, no unit symbol.

Past entries and their recorded results:
CCCCOC(C)=O [butyl ethanoate] | 125.83
CO | 64.70

Fill in: Normal boiling temperature of CCO is ___ 78.30

Sample CCCO — what was its Normal boiling temperature? 97.20
